- Target Under Test: hAM1R (human, UniProt Q16602)
- Protocol Notes: cell-based or functional assay
Bridge positions count the residues as written; N and C are the ends. Square brackets hold non-standard residues; d marks the D form. Ends that are not written are not given here. Hyp = O=C(O)[C@@H]1C[C@@H](O)CN1; Cit = NC(=O)NCCC[C@H](N)C(=O)O
Measured hAM1R EC50 (cAMP) accompanies every entry in the list below.
A number alone suffices; assume µM.

INSERT INTO results (binder, unit_annotation, test_value) VALUES
  ('GCRFGTCTVQRLAHQIYQFTDKDKDNVAPRTKIGPQGY [SEQ ID NO: 391]', 'µM', 0.000665),
  ('GCRFGTCTVQ[Cit]LAHQIYQFTDKDKDNVAPRTKVGPQG[Hyp]-NH2 (disulfide 2-7 (inferred); ends not checked) [SEQ ID NO: 259]', 'µM', 4.32),
  ('GCRTGTCTVQRLAHQIYQFTDKDKDNVAPRTNVSPQG[Hyp]-NH2 (disulfide 2-7 (inferred); ends not checked) [SEQ ID NO: 178]', 'µM', 2.98);

Now consider a different binder.
Lookup: Consider the binder shown here: GCRFGTCTVQRLAHQIYQFTDKDKDNVAPRSNISPNGY [SEQ ID NO: 383] What is its recorded hAM1R EC50 (cAMP)?
Found: 0.00593
